The values you see were collected from the supplement of paper PMC10567573.

B1: SCNN1D (parent)
chain: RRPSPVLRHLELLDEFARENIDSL

variants of: B1; experiment: protein stability index of a GFP-peptide fusion (GPS, HEK-293T) (PSI 1-6); higher = more stable; conditions: c terminus: a fixed tail appended;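 further: lentivirally expressed fusions sorted by FACS into six bins by GFP to DsRed ratio, PSI derived from sequencing read proportions per bin multiplied by bin number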
Outcome: met for protein stability index of at least 3; not met for anything lower.

# example entries with known answers
INSERT INTO assay_data (mutation_list, class_name) VALUES
  ('P3F', 'not met'),
  ('A17H', 'met'),
  ('L24D', 'met'),
  ('I21M', 'not met'),
  ('P3L', 'not met'),
  ('D22C', 'not met'),
  ('F16R', 'met'),
  ('V6G', 'met');

Hi, just wondering whether "E15N" shows protein stability index of 3 or higher.
met

Determine whether this variant has protein stability index no lower than 3: "S4G"
not met
